ASSAY_READOUT: melting point

COMPOUND | TEST_RESULT
CC(=O)c1noc2cc(OCc3cccc(C(F)(F)F)c3)ccc12 | 130 to 132 °C
CC(=O)c1cn(S(=O)(=O)c2ccccc2)c2nccc(OCC3CCCCC3)c12 | 138 to 140 °C
Nc1sc2c(c1C(=O)c1ccco1)CCCC2 | 121 to 122 °C
Cc1ccc(S(=O)(=O)N2CCNCCOCCOCCNCCN(S(=O)(=O)c3ccc(C)cc3)CC2)cc1 | 121 °C
O=C(O)c1ccc(COc2ccc3cc(-c4ccc(-c5ccccc5)n4Cc4ccc(C(F)(F)F)cc4)ccc3c2)cc1 | 228 to 229 °C
O=C1CCC(N2Cc3c(OCc4nc(CN5CCOCC5)cs4)cccc3C2=O)C(=O)N1 (centres undefined) | 218 to 220 °C
O=C(Nc1cccc(OCCCN2CCOCC2)c1)C12CC3CC(CC(C3)C1)C2 | 160 to 164 °C
Cn1cc(-c2cc(-c3cnc4[nH]ccc4c3)ccn2)n(-c2ccc(C(C)(C)CN)cc2)c1=O | 91 °C

Field request: melting point | item: CCCCn1c(=O)c2c(NC)n[nH]c2n(CCO)c1=O
248 to 253 °C
